molecular target: GLP-1 receptor (UniProt P43220 24-463, limits assumed); assay: cell-based or functional assay
Sequence (P43220 24-463 limits assumed): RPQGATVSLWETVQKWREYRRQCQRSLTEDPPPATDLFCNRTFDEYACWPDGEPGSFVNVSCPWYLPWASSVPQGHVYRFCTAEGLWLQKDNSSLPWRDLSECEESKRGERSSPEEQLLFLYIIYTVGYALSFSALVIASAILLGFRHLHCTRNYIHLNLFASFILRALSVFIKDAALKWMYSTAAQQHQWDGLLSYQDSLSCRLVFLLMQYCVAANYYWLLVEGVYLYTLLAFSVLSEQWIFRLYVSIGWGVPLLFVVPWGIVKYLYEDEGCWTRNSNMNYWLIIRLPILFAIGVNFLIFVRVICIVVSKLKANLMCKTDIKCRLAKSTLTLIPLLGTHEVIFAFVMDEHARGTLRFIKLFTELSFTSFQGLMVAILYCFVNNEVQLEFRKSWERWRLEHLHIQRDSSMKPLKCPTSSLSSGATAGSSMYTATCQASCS
Where no end group is shown, it is not given here. [ ]: non-standard residue; d: D form. 40K‑TE = not defined here; Aib = CC(C)(N)C(=O)O
Quantity measured: EC50 (cAMP reporter) (nM)
One number for each entry, in nM.

For every item below, please supply its EC50 (cAMP reporter).
1. YXEGTFTSDYSIYLDKQAAXEFVNWLLAGGPSSGAPPPSC (not fully specified; aib at 2; acpc at 20; C-terminal C(40K-TE); NH2) [peptide of SEQ ID NO: 73]
2. H[Aib]QGTFTSDYSIYLDKQAA[Aib]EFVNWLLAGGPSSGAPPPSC(40K‑TE)-NH2 (reading uncertain) [peptide of SEQ ID NO: 53]
3. Y[Aib]QGTFTSDYSIYLDKEAA[Aib]KFVNWLLAGGPSSGAPPPSC(40K‑TE)-NH2 (lactam (positions not given here); reading uncertain; also: lactam between underlined residues, underlining not shown) [peptide of SEQ ID NO: 59]

1: 0.91; 2: 0.027; 3: 0.063

Look up and state reported EC50 (cAMP reporter) for Y[Aib]QGTFTSDYSIYLDEQAAKEFV[Aib]WLLAGGPSSGAPPPSC-NH2 (lactam (positions not given here); also: lactam between underlined residues, underlining not shown) [peptide of SEQ ID NO: 56] 0.096

Ref: patent US20120238493A1
